Test system: auxin signaling mutants
protocol description: Effect of activators on lateral root density of auxin signaling mutants (Table 2)
Format: in vivo, Arabidopsis thaliana
condition parameters: Tir1-1; 30 uM
Description: Afb1, Afb2, Afb3 and the triple mutant Tirlafb2afb3 were described by Dhamasiri et al. (2005). […] For phenotypic analysis, all mutants were grown on vertically oriented square plates (Greiner Labortechnik, Austria) with solid medium derived from standard MS medium. […] After this, root length and number of lateral roots were counted using ImageJ 1.34 freeware.
endpoint label: lateral root density (LR/cm)

1. COc1ccccc1CNC(=O)C(C)Sc1ccc(Cl)cc1 (stereo not shown); 0.52
2. CN1C(=O)C(=Cc2ccc(-c3cccc(C(F)(F)F)c3)o2)SC1=S; 8.95
3. Cc1ccccc1OCC(=O)NN=Cc1ccc(C(=O)O)cc1; 3.29
4. CCOC(=O)c1c(NC(=O)COc2ccc(Cl)cc2C)sc2c1CC(C)(C)OC2; 11.98
